The compounds listed here are annotated with their GI50.
test system: HCC 2998; test: NCI tumour cell line growth inhibition, 48 h
The source made the active and inactive calls. Cut-off read from the data, not from the text of the source: active = GI50 up to about 1.1 µM and inactive = higher.

Worked cases, GI50 given:
compound	reported value
COc1cc(Br)c(/C=N\c2cccc3cc(OC)c(OC)cc23)cc1OC	> 100 µM (inactive)
FC(F)(F)c1ccccc1N1CCN(c2nc(-c3cccs3)nc3ccc(Br)cc23)CC1	4.58 µM (inactive)
COc1ccc(C2c3cc4c(cc3OC3(OC)COC(=O)C23)OCO4)c(OC)c1 (centres undefined)	30 µM (inactive)
C=C(C)[C@@H]1CC[C@]2(C(=O)O)CC[C@]3(C)[C@H](CC[C@@H]4[C@@]5(C)CC(=O)C(C)(C)[C@@H]5CC[C@]43C)[C@@H]12	5.9 µM (inactive)
C1CCN2CC34CC(CC5CCCN(C6CCCC3N6)C54)C2C1 (centres undefined)	> 100 µM (inactive)

API: value(readout=GI50, system=HCC 2998) for record NC1=CN(Cc2ccccc2)C2=N/C(=C\c3ccccc3)C(=O)N12
> 100 µM (inactive)

Recorded GI50 for CCCCCCCCCCCCCCCCNc1cccc2ccccc12 with HCC 2998, please?
> 100 µM (inactive)

API: value(readout= GI50, system= HCC 2998, query= COc1ccc2cc(C(=O)Nc3ccc(O)c(C(=O)O)c3)ccc2c1OC )
> 100 µM (inactive)

GI50 of O=C1CC(O)c2c(Br)sc(Br)c21 (centres undefined) on HCC 2998?
6 µM (inactive)

Return GI50 measured with HCC 2998 given this compound: CCCCCCCC(=O)OC[C@H](C[As](=O)(O)O)OC(=O)CCCCCCC
14.6 µM (inactive)

Give the reported GI50 for O=C(O)c1cccc(OCCOc2cccc(C(=O)O)c2[N+](=O)[O-])c1[N+](=O)[O-] (system: HCC 2998).
> 100 µM (inactive)

HCC 2998 / GI50 / CCOC(=O)CCN1C(=O)C(=O)N(c2ccc(OC)cc2)C1=S : value?
69.2 µM (inactive)

Item CCOC(=O)c1c(Br)c(-c2ccc(OC)cc2)c(Br)n1C with HCC 2998 - GI50?
> 10 µM (inactive)

Query for HCC 2998: what GI50 does the record show for CC(=O)O/C(C)=C\C(=O)O/N=C(\N)c1ccc(C)cc1 ?
> 100 µM (inactive)
